Data origin: patent US20190282558A1

test system: Zika virus, FSS 13025 strain (ZIKV, Cambodia 2010); assay: Yield reduction assay followed by plaque assay in Vero cells, ZIKV Cambodia 2010; format: cell-based; conditions: Zika virus, 96 h; Vero cells, MOI 0.01, 4 days, plaque assay of supernatants; * = average of multiple data points; read-out: ZIKV, Cambodian 2010 IC50
quantity: IC50

>>> result_value("O=[N+]([O-])c1cc(-n2nccn2)ccc1NCCCCCCN1C[C@H](O)[C@@H](O)[C@H](O)[C@H]1CO")
"106 µM"

Hi team, please reply with IC50 for each item in this list.
1. [N-]=[N+]=Nc1ccc([N+](=O)[O-])c(NCCCCCCN2C[C@H](O)[C@@H](O)[C@H](O)[C@H]2CO)c1
2. O=[N+]([O-])c1cc(NCCCCCCN2C[C@H](O)[C@@H](O)[C@H](O)[C@H]2CO)ccc1-n1cccn1
3. O=[N+]([O-])c1cc(-c2ccncn2)ccc1NCCCCCCN1C[C@H](O)[C@@H](O)[C@H](O)[C@H]1CO
4. O=[N+]([O-])c1cc(-c2cccnc2)ccc1NCCCCCCN1C[C@H](O)[C@@H](O)[C@H](O)[C@H]1CO
5. O=[N+]([O-])c1cc(CN2CCCO2)ccc1NCCCCCCN1C[C@H](O)[C@@H](O)[C@H](O)[C@H]1CO
6. O=[N+]([O-])c1cc(-c2cccnn2)ccc1NCCCCCCN1C[C@H](O)[C@@H](O)[C@H](O)[C@H]1CO
7. O=[N+]([O-])c1cc(N2CCOCC2)ccc1NCCCCCCN1C[C@H](O)[C@@H](O)[C@H](O)[C@H]1CO

Key:
1. 38.7 µM
2. > 100 µM
3. > 100 µM
4. 17 µM
5. > 100 µM
6. > 100 µM
7. > 100 µM
